System: SN12C renal
PROTOCOL_TEXT: NCI tumour cell line growth inhibition, 48 h
PROPERTY_MEASURED: TGI

> print(dat)
                                    compound  property.measured  test.value
 1  COc1nc(OC)nc(Sc2ccc(Sc3ccc(Sc4nc(OC)nc(OC)n4)cc3)cc2)n1                TGI    > 100 µM
 2  O=C(NC1C=Nc2ccccc2NC1=O)c1ccccc1Cl (stereo unspecified)                TGI    > 100 µM
 3  [O-][n+]1c2cc(CN3CCOCC3)c(CN3CCOCC3)cc2[n+]([O-])c2c(O)cccc21                TGI       13 µM
 4  N#CC(C(=O)CCC(=O)Nc1ccc(Cl)c(Cl)c1)c1ccc(Cl)cc1 (stereo unspecified)                TGI    > 100 µM
 5               CCCCCCCCCCCCCCCCCc1nnc(N)o1                TGI    > 100 µM
 6                              NCCCCCNOCCCN                TGI    > 100 µM
 7         O=c1oc2c(ccc3c(O)cccc32)c2c1CCCC2                TGI    > 100 µM
 8  CCCCN(CCCC)CCC(O)c1cc2ccc(C(F)(F)F)cc2c2cc(C(F)(F)F)ccc12 (stereo unspecified)                TGI     14.6 µM
 9  CCOC(=O)c1ccc(Nc2cnc3ccc(C(F)(F)F)cc3n2)cc1                TGI     27.2 µM
10  C[N+]12CCCCC1C(CN1C(=O)c3ccccc3C1=O)CCC2 (stereo unspecified)                TGI    > 100 µM
11     COc1ccc(/C(C#N)=C(/N)SCc2ccccc2Cl)cc1                TGI     91.3 µM
